- Test system: NLRP3
- assay_method_text: NLRP3 ELISA in LPS-stimulated RAW 264.7 cells
- Format: cell-based, murine
- measurement_setup: Mus musculus, RAW264.7, read-out: NLRP3 inhibition rate
measured_attribute: inhibition at 40 µM

[[record]]
molecule = "NC(CCC(=O)NNc1ccccc1C(F)(F)F)C(=O)O (centres unmarked)"
result = "≥ 20%"

[[record]]
molecule = "NC(CCC(=O)NNc1cccc(C(F)(F)F)c1)C(=O)O (centres unmarked)"
result = "10 to 15%"

[[record]]
molecule = "COc1ccc(NNC(=O)CC[C@H](N)C(=O)O)cc1"
result = "≥ 20%"

[[record]]
molecule = "N[C@@H](CCC(=O)NNc1ccc2ccccc2n1)C(=O)O"
result = "≥ 20%"

[[record]]
molecule = "COc1ccccc1NNC(=O)CC[C@H](N)C(=O)O"
result = "≥ 20%"

[[record]]
molecule = "N[C@@H](CCC(=O)NNc1ccccn1)C(=O)O"
result = "≥ 20%"

[[record]]
molecule = "NC(CCC(=O)NNc1cccc2ccccc12)C(=O)O (centres unmarked)"
result = "10 to 15%"

[[record]]
molecule = "NC(CCC(=O)NNc1ccc(OC(F)(F)F)cc1)C(=O)O (centres unmarked)"
result = "≥ 20%"


* * *

- assay_method_text: DPPH radical scavenging assay (antioxidant activity)
- Assay type: biochemical
- measurement_setup: in methanol, 30 min, absorbance at 540 nm
// reported IC50 per item
measured_attribute: IC50 (µM)

[[record]]
molecule = "COc1ccc(NNC(=O)CC[C@H](N)C(=O)O)cc1 [RA-4OMe, N^5-((4-methoxyphenyl)amino)glutamine]"
number = 5.49

[[record]]
molecule = "N[C@@H](CCC(=O)NNc1ccc2ccccc2n1)C(=O)O [RA-2Q, N^5-(quinolin-2-ylamino)glutamine]"
number = 9.7

[[record]]
molecule = "COc1ccccc1NNC(=O)CC[C@H](N)C(=O)O [RA-2OMe, N^5-((2-methoxyphenyl)amino)glutamine]"
number = 2.81

[[record]]
molecule = "NC(CCC(=O)NNc1cccc(C(F)(F)F)c1)C(=O)O (stereo not shown) [RA-3CF3]"
number = 31.7

[[record]]
molecule = "NC(CCC(=O)NNc1cccc2ccccc12)C(=O)O (stereo not shown) [RA-NAP]"
number = 1.77

[[record]]
molecule = "NC(CCC(=O)NNc1ccccc1C(F)(F)F)C(=O)O (stereo not shown) [RA-2CF3]"
number = 3

[[record]]
molecule = "CC(C)NNC(=O)CC[C@H](N)C(=O)O [RA-IPr, N^5-(Isopropylamino)glutamine]"
number = 2580

[[record]]
molecule = "N[C@@H](CCC(=O)NNc1ccccn1)C(=O)O [RA-PYD, N^5-(pyridin-2-ylamino)glutamine]"
number = 7.4

[[record]]
molecule = "CN(C)NC(=O)CC[C@H](N)C(=O)O [RA-DMe, N^5-(dimethylamino)glutamine]"
number = 598

[[record]]
molecule = "NC(CCC(=O)NNc1ccc(OC(F)(F)F)cc1)C(=O)O (stereo not shown) [RA-4OCF3]"
number = 3.77

